Where these numbers come from: ChEMBL document CHEMBL3879901

experimental.target: PI3-kinase p110-alpha/p85-alpha (Homo sapiens, UniProt P42336)
Sequence (P27986 whole entry): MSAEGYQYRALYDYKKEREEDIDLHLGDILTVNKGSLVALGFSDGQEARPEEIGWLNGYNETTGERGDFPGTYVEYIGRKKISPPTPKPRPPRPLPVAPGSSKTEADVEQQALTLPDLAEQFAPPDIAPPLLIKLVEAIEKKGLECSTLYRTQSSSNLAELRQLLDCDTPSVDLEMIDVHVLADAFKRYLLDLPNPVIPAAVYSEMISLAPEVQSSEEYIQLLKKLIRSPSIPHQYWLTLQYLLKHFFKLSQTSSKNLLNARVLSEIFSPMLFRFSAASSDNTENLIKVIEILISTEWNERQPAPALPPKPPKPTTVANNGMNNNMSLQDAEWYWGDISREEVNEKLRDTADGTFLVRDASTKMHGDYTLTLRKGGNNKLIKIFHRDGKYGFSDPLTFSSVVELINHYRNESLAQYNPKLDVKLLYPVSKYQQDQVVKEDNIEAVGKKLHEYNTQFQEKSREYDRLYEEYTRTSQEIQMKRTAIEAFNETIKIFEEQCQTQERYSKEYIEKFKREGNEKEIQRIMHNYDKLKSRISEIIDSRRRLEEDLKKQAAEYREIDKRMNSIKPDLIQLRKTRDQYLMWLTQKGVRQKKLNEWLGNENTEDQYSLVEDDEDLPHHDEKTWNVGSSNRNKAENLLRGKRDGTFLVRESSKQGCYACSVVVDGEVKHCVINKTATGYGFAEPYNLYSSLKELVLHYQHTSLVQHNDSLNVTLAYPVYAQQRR
Sequence (P42336 whole entry): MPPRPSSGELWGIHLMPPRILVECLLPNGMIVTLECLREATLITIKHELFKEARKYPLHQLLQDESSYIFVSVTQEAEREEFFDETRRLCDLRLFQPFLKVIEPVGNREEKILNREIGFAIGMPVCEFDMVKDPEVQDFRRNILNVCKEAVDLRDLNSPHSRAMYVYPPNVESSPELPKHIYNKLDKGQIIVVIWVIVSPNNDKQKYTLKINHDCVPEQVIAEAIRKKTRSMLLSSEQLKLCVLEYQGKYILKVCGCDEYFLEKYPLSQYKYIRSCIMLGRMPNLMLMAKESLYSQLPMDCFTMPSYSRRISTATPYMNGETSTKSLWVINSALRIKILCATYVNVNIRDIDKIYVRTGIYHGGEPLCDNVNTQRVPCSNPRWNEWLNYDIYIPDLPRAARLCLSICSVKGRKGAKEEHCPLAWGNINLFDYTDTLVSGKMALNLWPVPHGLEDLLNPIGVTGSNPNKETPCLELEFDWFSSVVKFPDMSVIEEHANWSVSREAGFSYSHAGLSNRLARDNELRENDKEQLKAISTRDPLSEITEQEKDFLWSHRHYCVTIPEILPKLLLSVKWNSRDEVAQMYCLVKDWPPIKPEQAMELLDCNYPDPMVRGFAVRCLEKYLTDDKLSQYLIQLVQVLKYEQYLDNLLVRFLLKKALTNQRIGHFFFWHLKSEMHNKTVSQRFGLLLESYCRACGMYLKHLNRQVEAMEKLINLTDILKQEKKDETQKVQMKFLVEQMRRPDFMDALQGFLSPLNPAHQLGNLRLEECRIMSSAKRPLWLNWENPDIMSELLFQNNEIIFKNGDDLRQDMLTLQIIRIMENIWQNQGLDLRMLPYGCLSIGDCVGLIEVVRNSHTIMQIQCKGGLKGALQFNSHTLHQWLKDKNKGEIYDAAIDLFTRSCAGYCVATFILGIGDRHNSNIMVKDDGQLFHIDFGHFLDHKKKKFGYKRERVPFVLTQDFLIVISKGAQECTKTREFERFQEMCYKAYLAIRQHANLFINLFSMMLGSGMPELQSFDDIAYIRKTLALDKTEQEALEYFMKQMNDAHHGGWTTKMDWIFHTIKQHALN
assay.comment: Inhibition of N-terminal His6-tagged recombinant full-length human p110alpha/untagged recombinant full length human p85alpha expressed in baculovirus infected Sf21 cells using phosphatidylinositol as substrate in presence of gamma-32P-ATP after 5 mins by thin layer chromatographic method
pIC50: −log10 of the molar value.
Entries and their measured pIC50 follow.

Problem: Write down pIC50 measured for item "Cc1ccccc1-n1c(Cn2nc(-c3cnc4[nH]ccc4c3)c3c(N)ncnc32)cc2cccc(C)c2c1=O"
Solution: < 5.00

Problem: Write down pIC50 measured for item "Cc1cccc2cc(Cn3nc(I)c4c(N)ncnc43)n(C3CCC3)c(=O)c12"
Solution: < 5.00

Problem: Write down pIC50 measured for item "Cc1cccc2cc(Cn3nc(C#C[C@@H](C)O)c4c(N)ncnc43)n(-c3ccccc3F)c(=O)c12"
Solution: < 5.00
